biological target: human full length PIK3KA Wild-type (p110α/p85α complex) (Homo sapiens, UniProt P42336); construct: Recombinant, catalytically active human full length PIK3KA Wild-type and H1047R mutant were purchased as 1:1 complex; 6xHis (N); purchased EMD Millipore Sigma 14-602M; test: PI3K-alpha kinase (PIK3CA) biochemical activity, wild-type, ADP-Glo; conditions: PI3K-α (PIK3CA) biochemical, Soy PI lipid substrate
Sequence (P42336 whole entry): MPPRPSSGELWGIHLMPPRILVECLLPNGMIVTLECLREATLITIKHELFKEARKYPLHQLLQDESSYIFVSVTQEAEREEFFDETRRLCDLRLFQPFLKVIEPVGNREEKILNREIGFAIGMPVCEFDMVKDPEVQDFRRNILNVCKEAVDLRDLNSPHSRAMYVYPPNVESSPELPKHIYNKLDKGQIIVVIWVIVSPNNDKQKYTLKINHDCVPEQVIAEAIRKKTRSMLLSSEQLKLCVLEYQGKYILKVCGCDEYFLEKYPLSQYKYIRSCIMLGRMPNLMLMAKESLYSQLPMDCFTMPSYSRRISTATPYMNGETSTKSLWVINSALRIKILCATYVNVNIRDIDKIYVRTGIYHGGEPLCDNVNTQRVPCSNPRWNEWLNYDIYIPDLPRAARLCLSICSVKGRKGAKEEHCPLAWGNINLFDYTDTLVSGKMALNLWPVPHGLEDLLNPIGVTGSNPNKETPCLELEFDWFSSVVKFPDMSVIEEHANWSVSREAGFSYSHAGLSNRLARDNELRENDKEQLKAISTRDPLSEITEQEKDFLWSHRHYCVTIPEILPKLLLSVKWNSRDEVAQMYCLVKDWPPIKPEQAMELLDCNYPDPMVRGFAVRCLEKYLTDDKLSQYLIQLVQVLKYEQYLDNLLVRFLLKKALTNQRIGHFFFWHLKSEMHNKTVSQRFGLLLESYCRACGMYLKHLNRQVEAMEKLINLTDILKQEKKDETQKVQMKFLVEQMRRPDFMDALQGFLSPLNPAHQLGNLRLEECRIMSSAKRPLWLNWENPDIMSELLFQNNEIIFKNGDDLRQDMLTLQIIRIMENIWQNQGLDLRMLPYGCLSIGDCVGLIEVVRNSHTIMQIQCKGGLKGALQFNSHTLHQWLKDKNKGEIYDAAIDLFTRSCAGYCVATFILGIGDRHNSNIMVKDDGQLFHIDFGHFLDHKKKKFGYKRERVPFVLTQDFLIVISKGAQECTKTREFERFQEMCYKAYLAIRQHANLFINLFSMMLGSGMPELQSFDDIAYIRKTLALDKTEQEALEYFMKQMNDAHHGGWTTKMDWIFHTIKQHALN
Sequence (P27986 whole entry partner): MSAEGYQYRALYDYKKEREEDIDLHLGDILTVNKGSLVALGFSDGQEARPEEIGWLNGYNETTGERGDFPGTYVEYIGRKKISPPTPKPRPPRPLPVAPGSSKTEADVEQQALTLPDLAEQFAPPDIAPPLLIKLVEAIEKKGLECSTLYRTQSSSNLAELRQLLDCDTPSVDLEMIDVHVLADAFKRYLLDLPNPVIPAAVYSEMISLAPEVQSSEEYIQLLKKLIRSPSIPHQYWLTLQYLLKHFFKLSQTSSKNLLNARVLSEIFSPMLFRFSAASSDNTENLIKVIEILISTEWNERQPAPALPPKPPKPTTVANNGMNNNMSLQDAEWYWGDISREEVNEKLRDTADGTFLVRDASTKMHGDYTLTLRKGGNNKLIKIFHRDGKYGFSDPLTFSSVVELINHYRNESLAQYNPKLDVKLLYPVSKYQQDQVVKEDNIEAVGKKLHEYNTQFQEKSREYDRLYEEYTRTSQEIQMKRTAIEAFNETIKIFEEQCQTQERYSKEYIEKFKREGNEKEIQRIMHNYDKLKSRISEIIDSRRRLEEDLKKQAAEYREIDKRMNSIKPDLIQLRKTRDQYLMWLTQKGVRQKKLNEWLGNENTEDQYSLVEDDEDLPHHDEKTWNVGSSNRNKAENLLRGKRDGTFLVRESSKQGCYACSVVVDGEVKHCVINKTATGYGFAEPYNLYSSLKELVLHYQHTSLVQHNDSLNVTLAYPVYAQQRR
pIC50: −log10 of the molar value.
OBSERVED_PROPERTY: pIC50

1) Cc1cc([C@@H](C)Nc2ccccc2C(=O)O)c2oc(-c3ccccc3F)c(C)c(=O)c2c1 [Example 44]; 5.30 to 6.00
2) Cc1cc([C@@H](C)Nc2cccc(F)c2C(=O)O)c2oc(-c3ccc(F)cc3F)c(C)c(=O)c2c1 [Example 130]; 5.30 to 6.00
3) Cc1cc([C@@H](C)Nc2ccc(Cl)nc2C(=O)O)c2oc(-c3ccccc3)c(C)c(=O)c2c1 [Example 1]; 6.00 to 6.30
4) Cc1cc([C@@H](C)Nc2ccccc2C(=O)O)c2oc(-c3cccc(C(C)(C)C(N)=O)c3)c(C)c(=O)c2c1 [Example 118]; 5.30 to 6.00
5) C[C@@H](Nc1ccccc1C(=O)O)c1cc(C(F)(F)F)cc2c(=O)cc(-c3ccc(F)cc3F)oc12 [Example 90]; 5.00 to 5.30
6) Cc1cc(C(C)Nc2cccc(F)c2C(=O)O)c2oc(-c3ccccc3F)c(C)c(=O)c2c1 (single isomer, unassigned; isomer 1) [Example 103]; > 6.30
7) Cc1cc([C@@H](C)Nc2ccccc2C(=O)O)c2oc(-c3ccccc3F)cc(=O)c2c1 [Example 11]; 5.30 to 6.00

====

Let's look at some molecules and their measured pIC50.
target: human full length PIK3KA Wild-type (p110α/p85α complex) (Homo sapiens, UniProt P42336); construct: Recombinant, catalytically active human full length PIK3KA Wild-type and H1047R mutant were purchased as 1:1 complex; 6xHis (N); purchased EMD Millipore Sigma 14-602M; assay: PI3K-alpha kinase (PIK3CA) biochemical activity, wild-type, ADP-Glo; conditions: PI3K-α (PIK3CA) biochemical, Soy PI lipid substrate
pIC50: −log10 of the molar value.
OBSERVED_PROPERTY: pIC50

1. Cc1cc([C@@H](C)Nc2ccc(C(F)(F)F)nc2C(=O)O)c2oc(-c3ccc(F)c(F)c3)c(C)c(=O)c2c1 [Example 123]; 5.30 to 6.00
2. Cc1cc([C@@H](C)Nc2ccccc2C(=O)O)c2oc(-c3ccccc3C#N)c(C)c(=O)c2c1 [Example 34]; < 5.00
3. Cc1c(-c2ccccc2)oc2c([C@@H](C)Nc3ccccc3C(=O)O)cc(F)cc2c1=O [Example 84]; 5.00 to 5.30
4. Cc1cc([C@@H](C)Nc2ccc(Cl)nc2C(=O)O)c2oc(-c3ccc(F)c(F)c3)c(C)c(=O)c2c1 [Example 113]; 5.30 to 6.00

====

biological target: human full length PIK3KA Wild-type (p110α/p85α complex) (Homo sapiens, UniProt P42336); construct: Recombinant, catalytically active human full length PIK3KA Wild-type and H1047R mutant were purchased as 1:1 complex; 6xHis (N); purchased EMD Millipore Sigma 14-602M; assay: PI3K-alpha kinase (PIK3CA) biochemical activity, wild-type, ADP-Glo; settings: PI3K-α (PIK3CA) biochemical, Soy PI lipid substrate
OBSERVED_PROPERTY: IC50

1) C[C@@H](Nc1ccccc1C(=O)O)c1cc(F)cc2c(=O)cc(-c3ccccc3)oc12; 1 to 5 µM
2) Cc1cc([C@@H](C)Nc2ccc(Cl)cc2C(=O)O)c2oc(-c3ccccc3F)c(C)c(=O)c2c1; 1 to 5 µM
3) C[C@@H](Nc1ccc(Cl)nc1C(=O)O)c1cc(C(F)(F)F)cc2c(=O)cc(-c3ccc(F)c(F)c3)oc12; 1 to 5 µM
4) Cc1cc([C@@H](C)Nc2ccccc2C(=O)O)c2oc(-c3cc(F)cc(F)c3)cc(=O)c2c1; 1 to 5 µM
5) Cc1cc([C@@H](C)Nc2ccc(C#N)nc2C(=O)O)c2oc(-c3ccccc3)c(C)c(=O)c2c1 (single isomer, unassigned; isomer 2) [Example 160]; 1 to 5 µM
6) Cc1cc(C(C)Nc2ccccc2C(=O)O)c2oc(-c3ccc(C(=O)N(C)C)cc3)cc(=O)c2c1 (single isomer, unassigned; isomer 1) [Example 49]; 5 to 10 µM

====

biological target: human full length PIK3KA H1047R mutant (p110α/p85α complex) (Homo sapiens, UniProt P42336, H1047R); construct: Recombinant, catalytically active human full length PIK3KA Wild-type and H1047R mutant were purchased as 1:1 complex; 6xHis (N); purchased EMD Millipore Sigma 14-792M; assay: PI3K-alpha kinase (PIK3CA) biochemical activity, H1047R mutant, ADP-Glo; settings: PI3K-α (PIK3CA) biochemical, H1047R mutant, Soy PI lipid substrate
Sequence (P42336 whole entry H1047R): as the sequence (P42336 whole entry) above, with H1047R counted along it
Sequence (P27986 whole entry partner): as the sequence (P27986 whole entry partner) above
OBSERVED_PROPERTY: IC50

1) Cc1cc([C@@H](C)Nc2ccc(C)c(F)c2C(=O)O)c2oc(-c3ccccc3)c(C)c(=O)c2c1; < 500 nM
2) Cc1cc(C(C)Nc2ccccc2C(=O)O)c2oc(-c3ccccc3)c(F)c(=O)c2c1 (single isomer, unassigned; isomer 1) [Example 132]; < 500 nM
3) Cc1cc([C@@H](C)Nc2cncnc2C(=O)O)c2oc(-c3ccccc3)c(C)c(=O)c2c1; < 500 nM
4) Cc1c(-c2ccccc2)oc2c([C@@H](C)Nc3cccnc3C(=O)O)cc(C(F)(F)F)cc2c1=O; 1000 to 5000 nM
5) Cc1cc([C@@H](C)Nc2ccc(C#N)cc2C(=O)O)c2oc(-c3ccccc3)c(C)c(=O)c2c1 (single isomer, unassigned; isomer 2) [Example 158]; < 500 nM
6) Cc1cc([C@@H](C)Nc2ccc(Cl)nc2C(=O)O)c2oc(-c3cccc(C#N)c3)c(C)c(=O)c2c1 [Example 115]; < 500 nM
7) Cc1cc(C(C)Nc2ccc(Cl)nc2C(=O)O)c2oc(-c3ccccc3)c(I)c(=O)c2c1 (stereo not drawn) [Example 140]; < 500 nM
8) Cc1cc([C@@H](C)Nc2ccc(F)cc2C(=O)O)c2oc(-c3ccccc3)c(C)c(=O)c2c1; < 500 nM
9) Cc1cc([C@@H](C)Nc2ccccc2C(=O)O)c2oc(-c3ccccc3C#N)c(C)c(=O)c2c1; < 500 nM
10) Cc1cc(C(C)Nc2cccc(F)c2C(=O)O)c2oc(-c3ccccc3F)c(C)c(=O)c2c1 (single isomer, unassigned; isomer 1) [Example 103]; < 500 nM
11) CC(Nc1ccccc1C(=O)O)c1cc(C(F)(F)F)cc2c(=O)cc(-c3ccccc3)oc12 (single isomer, unassigned; isomer 1) [Example 86]; > 10000 nM
12) Cc1cc([C@@H](C)Nc2ccccc2C(=O)O)c2oc(-c3ccccc3F)cc(=O)c2c1; < 500 nM
13) COC(=O)c1cccc(-c2oc3c([C@@H](C)Nc4ccccc4C(=O)O)cc(C)cc3c(=O)c2C)c1; < 500 nM
14) Cc1cc([C@@H](C)Nc2ccc(Cl)cc2C(=O)O)c2oc(-c3ccccc3)c(C)c(=O)c2c1; < 500 nM
15) Cc1cc([C@@H](C)Nc2ccccc2C(=O)O)c2oc(-c3ccccc3C)cc(=O)c2c1; < 500 nM
16) Cc1cc(C(C)Nc2ccccc2C(=O)O)c2oc(-c3ccc(C4(C)CC4)cc3)cc(=O)c2c1 (stereo not drawn); 500 to 1000 nM
17) Cc1cc([C@@H](C)Nc2ccc(Cl)cc2C(=O)O)c2oc(-c3cccc(C#N)c3)c(C)c(=O)c2c1; < 500 nM
18) COc1ccc(NC(C)c2cc(C)cc3c(=O)c(C)c(-c4ccccc4)oc23)c(C(=O)O)n1 (single isomer, unassigned; isomer 2) [Example 110]; 1000 to 5000 nM

====

biological target: human full length PIK3KA H1047R mutant (p110α/p85α complex) (Homo sapiens, UniProt P42336, H1047R); construct: Recombinant, catalytically active human full length PIK3KA Wild-type and H1047R mutant were purchased as 1:1 complex; 6xHis (N); purchased EMD Millipore Sigma 14-792M; assay: PI3K-alpha kinase (PIK3CA) biochemical activity, H1047R mutant, ADP-Glo; conditions: PI3K-α (PIK3CA) biochemical, H1047R mutant, Soy PI lipid substrate
pIC50: −log10 of the molar value.
OBSERVED_PROPERTY: pIC50

1. Cc1cc(C(C)Nc2ccccc2C(=O)O)c2oc(-c3cccc(C(C)(C)C#N)c3)cc(=O)c2c1 (stereo not drawn) [Example 3]; > 6.30
2. Cc1cc([C@@H](C)Nc2ccc(C#N)nc2C(=O)O)c2oc(-c3ccccc3)c(C)c(=O)c2c1 (single isomer, unassigned; isomer 2) [Example 160]; > 6.30
3. CC(Nc1ccccc1C(=O)O)c1cc(F)c(F)c2c(=O)cc(-c3ccccc3)oc12 (stereo not drawn); > 6.30
4. Cc1cc([C@@H](C)Nc2ccc(Cl)nc2C(=O)O)c2oc(-c3ccccc3)c(C)c(=O)c2c1; > 6.30
5. Cc1c(-c2ccccc2)oc2c([C@@H](C)Nc3ccccc3C(=O)O)cc(F)cc2c1=O [Example 72]; 5.30 to 6.00
6. Cc1cc(C(C)Nc2ccccc2C(=O)O)c2oc(-c3ccc(C(=O)N(C)C)cc3)cc(=O)c2c1 (single isomer, unassigned; isomer 2) [Example 50]; 5.00 to 5.30
7. Cc1cc(C(C)Nc2ccccc2C(=O)O)c2oc(-c3ccc(S(C)(=O)=O)cc3)cc(=O)c2c1 (single isomer, unassigned; isomer 2) [Example 48]; > 6.30
8. COc1ccc(NC(C)c2cc(C)cc3c(=O)c(C)c(-c4ccccc4)oc23)c(C(=O)O)n1 (single isomer, unassigned; isomer 1) [Example 109]; > 6.30
9. Cc1cc([C@@H](C)Nc2ccccc2C(=O)O)c2oc(-c3ccccc3)c(NCCC(=O)O)c(=O)c2c1; 6.00 to 6.30
10. Cc1cc([C@@H](C)Nc2cnccc2C(=O)O)c2oc(-c3ccccc3)c(C)c(=O)c2c1; > 6.30
11. Cc1cc([C@@H](C)Nc2ccccc2C(=O)O)c2oc(-c3ccccc3)c(C3COC3)c(=O)c2c1; > 6.30
12. Cc1cc([C@@H](C)Nc2ccccc2C(=O)O)c2oc(-c3ccc(-c4ncco4)cc3)cc(=O)c2c1; > 6.30
13. Cc1cc([C@@H](C)Nc2ccccc2C(=O)O)c2oc(-c3cccc(C(F)F)c3)cc(=O)c2c1; > 6.30
14. Cc1cc([C@@H](C)Nc2ccccc2C(=O)O)c2oc(-c3cccc(C(C)(C)C(N)=O)c3)c(C)c(=O)c2c1; > 6.30
15. Cc1cc(C(C)Nc2ccccc2C(=O)O)c2oc(-c3ccc(N4CCCC4)cc3)cc(=O)c2c1 (single isomer, unassigned; isomer 2) [Example 55]; > 6.30
